Tested on: H3K27 methylation in G401 cell
MEASUREMENT_NOTES: ELISA (H3K27 methylation) assay in G401 cells
Assay type: cell-based, human
EXPERIMENTAL_SETUP: Homo sapiens, G-401, H3K27 methylation ELISA, read-out: (c) IC50 ELISA Qualified
PARAMETER: pIC50
Value format note: pIC50 is -log10 of concentration (mol/L); just state the number.

INSERT INTO measurements (compound, parameter, assay_value) VALUES
  ('COc1cccc(F)c1CNc1ccc(-c2ccc(NC(C)=O)nc2)c2nncn12', 'pIC50', 7.36),
  ('COc1ccccc1CNc1ccc(-c2ccc(N3CCN(C)CC3C)nc2)c2nncn12 (stereo not drawn)', 'pIC50', 7.24),
  ('COc1cccc(F)c1CNc1ccc(-c2cnc(N(C)C)nc2C)c2nncn12', 'pIC50', 7.66),
  ('COc1cccc(F)c1CNc1ccc(-c2ccc(Cl)cc2Cl)c2nncn12', 'pIC50', 6.66),
  ('COc1cccc(F)c1CNc1ccc(-c2cnccc2F)c2nncn12', 'pIC50', 7.94),
  ('COc1cc(F)cc(F)c1CNc1ccc(-c2ccc(C)nc2C(F)F)c2nncn12', 'pIC50', 7.73);

q: # lookup: pIC50 of COC(=O)N1CCC(n2cc(-c3ccc(NCc4c(F)cccc4OC)n4cnnc34)cn2)CC1
a: 6.62

q: # lookup: pIC50 of COc1cccc(F)c1CNc1ccc(-c2ccccc2Cl)c2nncn12
a: 6.93
